# tested on: bovine serum albumin (BSA) (Bos taurus)
# Construct: BSA, molecular weight of 66 kDa, 583 residues; purchased Sigma Aldrich Chemicals (Taufkirchen, Germany)
# experiment: Steady-state fluorescence titration of ANS with BSA at ambient pressure (binding isotherms)
# condition details: Binding constant Kb2, 250 mM Mg(ClO4)2, 15 °C, 1 bar, 10 mM Tris-HCl pH 7.4
readout type: Kd (µM)
Give the value in µM but do not write µM after it.

Value of measured Kd for the entry `O=S(=O)(O)c1cccc2cccc(Nc3ccccc3)c12` : 7.69

---

# tested on: bovine serum albumin (BSA) (Bos taurus)
# Construct: BSA, molecular weight of 66 kDa, 583 residues; purchased Sigma Aldrich Chemicals (Taufkirchen, Germany)
# experiment: High hydrostatic pressure fluorescence titration of ANS with BSA (1-2000 bar)
# Type: binding
# condition details: Binding constant Kb1, 250 mM MgCl2, 5 °C, 1 bar
readout type: pKd
The scale used: pKd is minus the common logarithm of the concentration in molar units.

Value of measured pKd for the entry `O=S(=O)(O)c1cccc2cccc(Nc3ccccc3)c12` : 6.00

---

# tested on: bovine serum albumin (BSA) (Bos taurus, UniProt P02769)
# Construct: BSA, molecular weight of 66 kDa, 583 residues; purchased Sigma Aldrich Chemicals (Taufkirchen, Germany)
# Sequence (P02769 25-607): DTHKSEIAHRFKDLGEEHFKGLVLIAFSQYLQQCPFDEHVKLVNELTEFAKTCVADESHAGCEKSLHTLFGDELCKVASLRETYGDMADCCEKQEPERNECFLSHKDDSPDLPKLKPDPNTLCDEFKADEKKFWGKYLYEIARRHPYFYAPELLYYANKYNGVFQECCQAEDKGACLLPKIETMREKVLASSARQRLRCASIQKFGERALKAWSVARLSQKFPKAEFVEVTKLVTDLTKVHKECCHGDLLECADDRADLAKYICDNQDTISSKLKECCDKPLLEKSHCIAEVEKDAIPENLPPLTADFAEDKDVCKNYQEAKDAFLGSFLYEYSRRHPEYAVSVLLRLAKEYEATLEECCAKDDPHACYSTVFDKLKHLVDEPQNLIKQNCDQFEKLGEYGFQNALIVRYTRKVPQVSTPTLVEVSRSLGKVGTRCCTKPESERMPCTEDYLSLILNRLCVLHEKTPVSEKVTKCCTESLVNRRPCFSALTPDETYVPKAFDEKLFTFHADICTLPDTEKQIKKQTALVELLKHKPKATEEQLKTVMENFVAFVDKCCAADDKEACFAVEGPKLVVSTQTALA
# experiment: High hydrostatic pressure fluorescence titration of ANS with BSA (1-2000 bar)
# Format: binding
# condition details: Binding constant Kb1, 250 mM MgSO4, 15 °C, 2000 bar
readout type: pKd
The scale used: pKd is minus the common logarithm of the concentration in molar units.

Value sought: pKd, system bovine serum albumin (BSA) (Bos taurus, UniProt P02769), item O=S(=O)(O)c1cccc2cccc(Nc3ccccc3)c12 [ANS, 8-anilinonaphthalene-1-sulfonic acid] . Result: 5.65

---

# tested on: bovine serum albumin (BSA) (Bos taurus)
# Construct: BSA, molecular weight of 66 kDa, 583 residues; purchased Sigma Aldrich Chemicals (Taufkirchen, Germany)
# experiment: High hydrostatic pressure fluorescence titration of ANS with BSA (1-2000 bar)
# Format: binding
# condition details: Binding constant Kb2, 250 mM Mg(ClO4)2, 25 °C, 1 bar
readout type: Kd (nM)
Give the value in nM but do not write nM after it.

Value sought: Kd, system bovine serum albumin (BSA) (Bos taurus), item O=S(=O)(O)c1cccc2cccc(Nc3ccccc3)c12 [ANS, 8-anilinonaphthalene-1-sulfonic acid] . Result: 833

---

# tested on: bovine serum albumin (BSA) (Bos taurus, UniProt P02769)
# Construct: BSA, molecular weight of 66 kDa, 583 residues; purchased Sigma Aldrich Chemicals (Taufkirchen, Germany)
# experiment: High hydrostatic pressure fluorescence titration of ANS with BSA (1-2000 bar)
# Format: binding
# condition details: Binding constant Kb1, 250 mM MgCl2, 25 °C, 1 bar
readout type: pKd
The scale used: pKd is minus the common logarithm of the concentration in molar units.

Value of measured pKd for the entry `O=S(=O)(O)c1cccc2cccc(Nc3ccccc3)c12` : 6.69

---

# tested on: bovine serum albumin (BSA) (Bos taurus)
# Construct: BSA, molecular weight of 66 kDa, 583 residues; purchased Sigma Aldrich Chemicals (Taufkirchen, Germany)
# experiment: High hydrostatic pressure fluorescence titration of ANS with BSA (1-2000 bar)
# Type: binding
# condition details: Binding constant Kb1, 250 mM Mg(ClO4)2, 25 °C, 1500 bar
readout type: pKd
The scale used: pKd is minus the common logarithm of the concentration in molar units.

Value of measured pKd for the entry `O=S(=O)(O)c1cccc2cccc(Nc3ccccc3)c12` : 5.53

---

# tested on: bovine serum albumin (BSA) (Bos taurus)
# Construct: BSA, molecular weight of 66 kDa, 583 residues; purchased Sigma Aldrich Chemicals (Taufkirchen, Germany)
# experiment: High hydrostatic pressure fluorescence titration of ANS with BSA (1-2000 bar)
# Type: binding
# condition details: Binding constant Kb2, 250 mM Mg(ClO4)2, 5 °C, 500 bar
readout type: pKd
The scale used: pKd is minus the common logarithm of the concentration in molar units.

Value of measured pKd for the entry `O=S(=O)(O)c1cccc2cccc(Nc3ccccc3)c12` : 5.60

---

# tested on: bovine serum albumin (BSA) (Bos taurus, UniProt P02769)
# Construct: BSA, molecular weight of 66 kDa, 583 residues; purchased Sigma Aldrich Chemicals (Taufkirchen, Germany)
# experiment: High hydrostatic pressure fluorescence titration of ANS with BSA (1-2000 bar)
# Format: binding
# condition details: Binding constant Kb1, 250 mM MgSO4, 5 °C, 2000 bar
readout type: Kd
Remember to quote the unit after the number.

Value of measured Kd for the entry O=S(=O)(O)c1cccc2cccc(Nc3ccccc3)c12 [ANS, 8-anilinonaphthalene-1-sulfonic acid] : 2270 nM

---

# tested on: bovine serum albumin (BSA) (Bos taurus, UniProt P02769)
# Construct: BSA, molecular weight of 66 kDa, 583 residues; purchased Sigma Aldrich Chemicals (Taufkirchen, Germany)
# experiment: High hydrostatic pressure fluorescence titration of ANS with BSA (1-2000 bar)
# Type: binding
# condition details: Binding constant Kb2, 250 mM Mg(ClO4)2, 15 °C, 1000 bar
readout type: pKd
The scale used: pKd is minus the common logarithm of the concentration in molar units.

Value of measured pKd for the entry `O=S(=O)(O)c1cccc2cccc(Nc3ccccc3)c12` : 5.28

---

# tested on: bovine serum albumin (BSA) (Bos taurus, UniProt P02769)
# Construct: BSA, molecular weight of 66 kDa, 583 residues; purchased Sigma Aldrich Chemicals (Taufkirchen, Germany)
# experiment: High hydrostatic pressure fluorescence titration of ANS with BSA (1-2000 bar)
# Format: binding
# condition details: Binding constant Kb1, 250 mM MgCl2, 15 °C, 1500 bar
# Method: The extent of complex formation between ANS and BSA was followed by means of steady-state fluorescence spectroscopy using a K2 fluorometer from ISS, Inc. (Champaign, IL, USA). […] In the next step, we explored the impact of high hydrostatic pressure (HHP) on the binding of ANS to BSA in the presence of the three salts and in the temperature range between 5 and 25 °C. To this end, we performed the same titration experiments following the complex formation by means of HHP fluorescence spectroscopy. […]
readout type: pKd
The scale used: pKd is minus the common logarithm of the concentration in molar units.

Value of measured pKd for the entry `O=S(=O)(O)c1cccc2cccc(Nc3ccccc3)c12` : 5.63

---

# tested on: bovine serum albumin (BSA) (Bos taurus)
# Construct: BSA, molecular weight of 66 kDa, 583 residues; purchased Sigma Aldrich Chemicals (Taufkirchen, Germany)
# experiment: High hydrostatic pressure fluorescence titration of ANS with BSA (1-2000 bar)
# Type: binding
# condition details: Binding constant Kb1, 250 mM MgCl2, 25 °C, 1000 bar
readout type: pKd
The scale used: pKd is minus the common logarithm of the concentration in molar units.

Value of measured pKd for the entry `O=S(=O)(O)c1cccc2cccc(Nc3ccccc3)c12` : 6.65

---

# tested on: bovine serum albumin (BSA) (Bos taurus, UniProt P02769)
# Construct: BSA, molecular weight of 66 kDa, 583 residues; purchased Sigma Aldrich Chemicals (Taufkirchen, Germany)
# experiment: High hydrostatic pressure fluorescence titration of ANS with BSA (1-2000 bar)
# Type: binding
# condition details: Binding constant Kb1, 250 mM Mg(ClO4)2, 25 °C, 2000 bar
readout type: pKd
The scale used: pKd is minus the common logarithm of the concentration in molar units.

Value sought: pKd, system bovine serum albumin (BSA) (Bos taurus, UniProt P02769), item `O=S(=O)(O)c1cccc2cccc(Nc3ccccc3)c12` . Result: 5.60

---

# tested on: bovine serum albumin (BSA) (Bos taurus, UniProt P02769)
# Construct: BSA, molecular weight of 66 kDa, 583 residues; purchased Sigma Aldrich Chemicals (Taufkirchen, Germany)
# experiment: High hydrostatic pressure fluorescence titration of ANS with BSA (1-2000 bar)
# Format: binding
# condition details: Binding constant Kb1, 250 mM MgCl2, 15 °C, 500 bar
readout type: Kd (nM)
Give the value in nM but do not write nM after it.

Value of measured Kd for the entry `O=S(=O)(O)c1cccc2cccc(Nc3ccccc3)c12` : 2500

---

# tested on: bovine serum albumin (BSA) (Bos taurus)
# Construct: BSA, molecular weight of 66 kDa, 583 residues; purchased Sigma Aldrich Chemicals (Taufkirchen, Germany)
# experiment: High hydrostatic pressure fluorescence titration of ANS with BSA (1-2000 bar)
# Type: binding
# condition details: Binding constant Kb1, 250 mM MgCl2, 5 °C, 1000 bar
readout type: pKd
The scale used: pKd is minus the common logarithm of the concentration in molar units.

Value of measured pKd for the entry `O=S(=O)(O)c1cccc2cccc(Nc3ccccc3)c12` : 6.08

---

# tested on: bovine serum albumin (BSA) (Bos taurus)
# Construct: BSA, molecular weight of 66 kDa, 583 residues; purchased Sigma Aldrich Chemicals (Taufkirchen, Germany)
# experiment: High hydrostatic pressure fluorescence titration of ANS with BSA (1-2000 bar)
# Assay type: binding
# condition details: Binding constant Kb1, 250 mM Mg(ClO4)2, 15 °C, 1500 bar
readout type: Kd (µM)
Give the value in µM but do not write µM after it.

Value of measured Kd for the entry `O=S(=O)(O)c1cccc2cccc(Nc3ccccc3)c12` : 4.76
